- EXPERIMENTAL DETAILS: Stability of the compound in human plasma at 22 MBq/mL up to 120 mins
- Type: ADME, cell-free
- PROTOCOL CONDITIONS: read-out: Stability
PROPERTY LABEL: remaining at 2 h, 22 MBq/mL (%)

N[C@@H](Cc1ccc(OCC[18F])cc1)C(=O)O [FLORETYROSINE F18]    87

====

- EXPERIMENTAL DETAILS: Metabolic stability in Han Wistar rat hepatocytes at 1 uM after 8 mins
- Assay type: ADME, cell-based, Hepatocyte
- PROTOCOL CONDITIONS: read-out: Stability
PROPERTY LABEL: remaining at 8 min, 1 µM (%)

N[C@@H](Cc1ccc(O[C@H]2C[C@@H](F)C2)cc1)C(=O)O    99

====

- EXPERIMENTAL DETAILS: Stability of the compound in rat plasma at 22 MBq/mL up to 120 mins
- Format: ADME, cell-free
- PROTOCOL CONDITIONS: read-out: Stability
PROPERTY LABEL: remaining at 2 h, 22 MBq/mL

N[C@@H](Cc1ccc(O[C@H]2C[C@@H]([18F])C2)cc1)C(=O)O    > 99.9%

====

- EXPERIMENTAL DETAILS: Metabolic stability in Han Wistar rat hepatocytes at 1 uM after 45 mins
- Type: ADME, cell-based, Hepatocyte
- PROTOCOL CONDITIONS: read-out: Stability
PROPERTY LABEL: remaining at 0.75 h, 1 µM (%)

N[C@@H](Cc1ccc(O[C@H]2C[C@@H](F)C2)cc1)C(=O)O    95
